experiment: chemical genetic growth profiling, strain panel (AID 1159580);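 also: tested at 20 µM; growth read once vehicle control cultures reached saturation at 30 °C; 1 = growth at the plate median or of vehicle wells; lower values mean less growth of the strain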; conditions: S. cerevisiae deletion strains, growth OD, locus YPR119W, strain clb2
Among all 5,500 compounds or so, about 2,000 (36%) were called active. About 18% were inconclusive and are not listed. Rule as the data show it: active = normalized growth mostly below about 0.91 (no sharp cut-off); inconclusive = no clear call, values can overlap the other calls; inactive = mostly above about 0.92. The list shows a part of the results.
Permitted responses: t for active, f for inactive

Would you please look over these solved cases?
CCCCCCCCC(=O)NCc1ccc(O)c(OC)c1 :: f
CCC(C)C(=O)O[C@@H]1C[C@@]2(C)[C@H](c3ccoc3)OC(=O)CC23OC2(C)OC34[C@H](OC(=O)C(C)C)[C@@]3(O)[C@@H](OC(=O)C5(C)OC5C)[C@@]5(C)C[C@]3(O)[C@@](C)([C@H]5CC(=O)OC)C14O2 (some centres undefined) :: f
CC(C)NCC(O)COc1cccc2[nH]ccc12 (centres undefined) :: f
C=C1C2CC[C@@]3(C)[C@H](c4ccoc4)OC(=O)C[C@]13O[C@H]1CC(=O)C(C)(C)[C@H](C(OC(C)=O)C(=O)OC)[C@@]21C (some centres undefined) :: f
COc1cc2c(cc1OC)C(=O)c1ccc(OC)c(OC)c1OCC(=O)C2 :: f
COc1cc(CNC(=O)CCCC/C=C/C(C)C)ccc1O :: f
CN1CC(=O)N=C1N :: f
O=C1C(Cl)=C(Cl)C(=O)C(Cl)=C1Cl :: t

Turning now to a further record.
So what was the verdict on COc1ccc2c(c1)OC/C(=C\c1ccc(OC)c(O)c1)C2=O in this test? t

* * *

experiment: chemical genetic growth profiling, strain panel (AID 1159580);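 also: tested at 20 µM; growth read once vehicle control cultures reached saturation at 30 °C; 1 = growth at the plate median or of vehicle wells; lower values mean less growth of the strain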; details: S. cerevisiae deletion strains, growth OD, locus YLR262C, strain YPT6 (second series), active compounds read low
In all, about 5,500 compounds went through this assay and about 2,000 (36%) were called active. Inconclusive results (about 18%) are left out. The list shows a part of the results.
assay endpoint: normalized growth
Numbers only.

Known results for molecules:
COc1ccc(C(c2ccc(OC)cc2)C(Cl)(Cl)Cl)cc1 :: 0.856
O=C1C(Cl)=C(Cl)C(=O)C(Cl)=C1Cl :: 0.703
C=C[C@@](C)(O)CCC1C(=C)C[C@H](O)C2C(C)(C)CCCC12C (stereo not given in full) :: 0.876
CNCCC(Oc1ccc(C(F)(F)F)cc1)c1ccccc1 (stereo not given) :: 1.04
C=C1CCC2[C@](C)(CO)[C@H](O)CC[C@@]2(C)[C@@H]1C/C=C1/C(=O)OC[C@H]1O (stereo not given in full) :: 0.975

// for each molecule in input: emit normalized growth
1. CC(=O)Oc1cc(OC(C)=O)c2c(c1)O[C@H](c1ccc(OC(C)=O)c(OC(C)=O)c1)[C@@H](OC(C)=O)C2
2. C=C[C@@](C)(O)CCC1C(=C)CCC2[C@@](C)(CO)CCC[C@]12C (stereo not given in full)
3. O=S(=O)(O)c1cc(N=C=S)ccc1/C=C/c1ccc(N=C=S)cc1S(=O)(=O)O

1. 0.998
2. 0.733
3. 1.04

// for each molecule in input: emit normalized growth
1. O=C(Oc1cc(O)cc2c1C[C@@H](OC(=O)c1cc(O)c(O)c(O)c1)[C@@H](c1cc(O)c(O)c(O)c1)O2)c1cc(O)c(O)c(O)c1
2. CCOC(=O)n1ccn(C)c1=S

[1.01, 0.929]
